List of folding stability dG unfold values.
- protocol.details: folding stability dG unfold from trypsin proteolysis; higher = more stable
property: folding stability dG unfold (kcal/mol)

| biosequence | value.reported |
| --- | --- |
| SGKVVATVPLPDGTVITVEVSPDNTVRVTVVRYRLVPNSTAPAVEVRTYTFPLPPGNPPSIQDVLDRVLSSA [r9_614_TrMRF] | 4.05 |
| SAGGGSTVTTTTPDGTSVSTTTLPDGTVTATATYPDSTVSTTYDPATNTTTVTTTSGGTTVATTTVAASAGG [r13_748_JUSTAS] | 2.48 |
| SAGMIRIIVDGKEVEEIEMSEEELRALLADPNIKKARVFVNGEEKEVEVKEGEIKEKLPPGAVIRIEKSAGG [r19_152_TrROS_Hall] | 1.45 |
| SAGGSAGGSAGKPKTLEVEMLVLDPETRRLYRVRMEIVLDPEDEGKLTIRLEIEELELPDSAGGSAGGSAGG [r17_241_TrROS_Hall] | 3.42 |
